Recorded values, source PubChem BioAssay (NCI).

tested on: TK-10 renal; test: NCI tumour cell line growth inhibition, 48 h; in the data active means GI50 below about 0.43 µM; inactive means the rest
Pick one and only one: 1 (active), 0 (inactive)

Example entries begin here.
| COMPOUND | CLASS |
| --- | --- |
| CCOC(=O)c1sc(=S)c2c(C(=O)OCC)c(C(=O)OCC)sc2c1C(=O)OCC | 0 |
| CCCN(CCC)c1ccc(/C=N/NC(=O)c2cccnc2)c(Cl)c1 | 0 |

What outcome does the record of this test show for COc1cc(-n2cc(-c3ccc(Cl)cc3)[nH]c2=O)cc(OC)c1OC ?
0

What outcome does the record of this test show for CCC(=C/[C@H](C)C/C=C/C(C)=C/[C@@H](C)C(=O)[C@@H](C)[C@H](O)[C@@H](C)CC)/C=C/[C@H]1OC(=O)C=C[C@H]1C ?
1

What outcome does the record of this test show for COc1ccccc1CNCCCN1C(=O)c2ccc3c4c(ccc(c24)C1=O)C(=O)N(CCCNCCCN)C3=O ?
0

What outcome does the record of this test show for Nc1ccc(/C=N/Nc2ccnc3c(N)cccc23)c2cccnc12 ?
0

What outcome does the record of this test show for COc1ccc([N+](=O)[O-])c(S(=O)(=O)c2ccc(Cl)cc2)n1 ?
0

What outcome does the record of this test show for N.N.NCCCCN.O=C([O-])C1(C(=O)[O-])CCC1.O=C([O-])C1(C(=O)[O-])CCC1.[Pt+4].[Pt+4] ?
0

What outcome does the record of this test show for COc1ccc2c(c1)CCC1C2CC[C@]2(C)/C(=N/OC(=O)Cc3ccccc3)CCC12 (stereo partly specified) ?
0

What outcome does the record of this test show for CO[C@@H]1[C@H](OC(=O)NC(=O)CCl)CC[C@]2(CO2)[C@H]1[C@@]1(C)O[C@@H]1CC=C(C)C ?
0

What outcome does the record of this test show for Cc1nc(NC(=O)CCCN2C(=O)c3cccc4cccc(c34)C2=O)sc1C(=O)Nc1cc(C(=O)NCCCN(C)C)n(C)c1 ?
0

What outcome does the record of this test show for COc1cc2nc(Nc3cccc(F)c3)nc(Nc3cc(C)[nH]n3)c2cc1OC ?
0

What outcome does the record of this test show for COc1cc(C(=O)c2cc3c(cc2C)OCO3)cc(OC)c1OC ?
0

What outcome does the record of this test show for Nc1c(C(=O)Nc2ccccc2Cl)sc2nc3c(cc12)CCCCCC3 ?
0

What outcome does the record of this test show for COc1ccc(-c2nc(-c3nc4ccc(OC)cc4[nH]3)cc3c2[nH]c2ccccc23)cc1 ?
0

What outcome does the record of this test show for COc1ccc(NC(=O)c2sc3nc(C)c(C(O)c4ccccc4)cc3c2N)cc1 (stereo unspecified) ?
0

---

tested on: HCC-2998 colon; experiment: NCI tumour cell line growth inhibition, 48 h
PARAMETER_MEASURED: TGI

Record excerpt, results attached:
| COMPOUND | SYSTEM_NAME | TGI |
| --- | --- | --- |
| Cc1ccc(Cl)c(NC(=O)C(=O)C(C(=O)c2ccncc2)C2OC(=O)c3ccccc32)c1 (stereo not drawn) | HCC-2998 colon | > 100 µM |
| O=C1C(=O)C(Br)(Br)C(Br)=C1Br | HCC-2998 colon | 62 µM |
| NS(=O)(=O)c1ccc(CCN=C=S)cc1 | HCC-2998 colon | 3.55 µM |
| Cc1cc(C)c2c(=O)n(CN3CCC(O)(c4ccccc4)CC3)sc2n1 | HCC-2998 colon | 57.3 µM |
| COc1ccc2c(c1)OC[C@@H]1c3cc4c(cc3O[C@H]21)OCO4 | HCC-2998 colon | > 100 µM |

Could you please provide reported TGI for CC12CCC[C@@](C)(C(=O)OC3OC(CO)C(O)C(O)C3O)[C@H]1CCC13CC4CC(OC4(CO)[C@H]1O)[C@@H]23 (stereo partly drawn) ? Thanks!
> 100 µM

---

test system: SW-620 colon; assay: NCI tumour cell line growth inhibition, 48 h
PARAMETER_MEASURED: GI50

Record excerpt, results attached:
| COMPOUND | DATA_VALUE |
| --- | --- |
| COC(=O)C1=C(C(=O)OC)C23C=C(C)C1C2=C(C)C1(CC1)[C@@](C)(O)C3=O (stereo not given in full) | 9.14 µM |
| COc1ccc(/C=C/c2n[nH]c3ccc(N4CCOC4=O)cc23)cc1 | 1.64 µM |
| COc1cc(/C=C2\COc3ccc(O)c(O)c3C2=O)cc(OC)c1 | 1.22 µM |
| C=C1C(=O)O[C@H]2[C@H]1CC/C(COC(=O)NCc1c[nH]c3ccc(Cl)cc13)=C\CC[C@@]1(C)O[C@@H]21 | 0.657 µM |

Provide GI50, system SW-620 colon, entry COc1ccc([N+](=O)[O-])c(S(=O)(=O)c2ccc(Cl)cc2)n1
2.06 µM

---

system: UACC-257 melanoma; assay: NCI tumour cell line growth inhibition, 48 h
PARAMETER_MEASURED: TGI

| MOLECULE | DATA_VALUE |
| --- | --- |
| COc1ccc(-c2nc(-c3nc4ccc(OC)cc4[nH]3)cc3c2[nH]c2ccccc23)cc1 | > 100 µM |

Could you please provide reported TGI for CCCN(CCC)c1ccc(/C=N/NC(=O)c2cccnc2)c(Cl)c1 ? Thanks!
2.96 µM

Could you please provide reported TGI for CCOC(=O)CCC(NC(=O)c1ccc(Nc2nc3ccccc3nc2-c2cccs2)cc1)C(=O)OCC (stereo not given) ? Thanks!
> 100 µM

Could you please provide reported TGI for CC(CO)C1=CC(C#CCOCc2ccccc2)N(C(=O)Oc2ccccc2)c2ccccc21 (stereo not given) ? Thanks!
88.2 µM

Could you please provide reported TGI for O=C(COc1ccccc1)NS(=O)(=O)c1ccccc1 ? Thanks!
> 100 µM

Could you please provide reported TGI for COc1ccc(C2=NN(C(C)=O)C(c3cn(-c4ccccc4)nc3-c3ccc(Cl)cc3)C2)cc1 (stereo not given) ? Thanks!
> 100 µM

Could you please provide reported TGI for CCC(C)C(NC(=O)C1CCCN1C(=O)C(NC(=O)C(C)N)C(C)C)C(N)=O (stereo not given) ? Thanks!
> 100 µM

Could you please provide reported TGI for NCCNC(=S)S ? Thanks!
> 100 µM

Could you please provide reported TGI for CCCCCCCC/C=C\CCCCCCCC(=O)NCCN(CCN)C(=O)CCCCCCC/C=C\CCCCCCCC ? Thanks!
> 100 µM

Could you please provide reported TGI for COc1ccccc1CNCCCN1C(=O)c2ccc3c4c(ccc(c24)C1=O)C(=O)N(CCCNCCCN)C3=O ? Thanks!
1.98 µM

---

tested on: OVCAR-4 ovarian; test: NCI tumour cell line growth inhibition, 48 h
PARAMETER_MEASURED: log10 TGI (log10 of the value in µM)
A value of 2 here means TGI of 100 in µM, since values are log10.

Record excerpt, results attached:
| COMPOUND | log10 TGI |
| --- | --- |
| CC(=O)Oc1cc2c(cc1OC(C)=O)[C@H]1CC[C@]3(C)[C@@H](OC(C)=O)CC[C@H]3[C@@H]1CC2 | 1.29 |
| CN(C)CCNC(=O)c1cccc2[nH]c(-c3ccccc3)nc12 | 1.92 |
| COC1=CC(c2ccc[nH]2)=N/C1=C\c1[nH]c(C)c(C(=O)CCCCC(=O)Nc2ccccc2)c1C | 0.60 |
| COc1ccc(N2C(=O)C3c4[nH]c5cccc(C)c5c4C4CCC(C(C)(C)C)CC4C3C2=O)cc1 (stereo not given) | 0.35 |
| Nc1c(C(=O)Nc2ccccc2Cl)sc2nc3c(cc12)CCCCCC3 | 0.71 |
| CCCN(CCC)c1ccc(/C=N/NC(=O)c2cccnc2)c(Cl)c1 | 1.55 |
| O=C(Cc1ccc(Cl)c(Cl)c1)N(CCc1ccc(Cl)c(Cl)c1)CCN1CCCC1 | 0.72 |
| CC(C)n1c2c([n+](C)c1/C=C/c1ccccc1)C(=O)c1ccccc1C2=O | 0.00 |
| CC(=O)N=c1ccc2nc3c(cc(N)c4ccccc43)oc-2c1 | 0.21 |

We now examine a further compound.
Could you please provide reported log10 TGI for CCOC(=O)CCC(NC(=O)Cc1ccc(Oc2nc3ccccc3nc2-c2cccs2)cc1)C(=O)OCC (stereo not given) ? Thanks!
1.97

---

system: SNB-19 CNS; assay: NCI tumour cell line growth inhibition, 48 h
Consider the following compounds and their measured TGI readings.

| COMPOUND | TGI |
| --- | --- |
| COc1ccc(-c2ccc(C3CC(c4ccc(Cl)cc4)=NN3)o2)c([N+](=O)[O-])c1 (stereo unspecified) | > 100 µM |
| CCOC(=O)CCC(NC(=O)c1ccc(Nc2nc3ccccc3nc2-c2cccs2)cc1)C(=O)OCC (stereo unspecified) | > 100 µM |
| N=c1ccc2c(c1)[nH]c1c3ccccc3[nH]c3cccc2c31 | 3 µM |
| OCC12C3C4C1C1C2C3C41CO (stereo unspecified) | > 100 µM |
| CN(C1=NCCO1)c1cccc2c1CCCC2 | > 10 µM |

We now examine a further compound.
Could you please provide reported TGI for COc1ccccc1Cn1nc(OC)c2cc([N+](=O)[O-])ccc21 ? Thanks!
41.5 µM
